target: GSK3β (Homo sapiens, UniProt P49841); assay: GSK3beta assay (SPA, biotinylated phosphorylated CREB peptide, ATP-P33); format: biochemical; conditions: −log IC50 (M); given as ranges (>8; 7-8; <7); read-out: pIC50 (GSK3beta) (converted)
Sequence (P49841 whole entry, species assumed): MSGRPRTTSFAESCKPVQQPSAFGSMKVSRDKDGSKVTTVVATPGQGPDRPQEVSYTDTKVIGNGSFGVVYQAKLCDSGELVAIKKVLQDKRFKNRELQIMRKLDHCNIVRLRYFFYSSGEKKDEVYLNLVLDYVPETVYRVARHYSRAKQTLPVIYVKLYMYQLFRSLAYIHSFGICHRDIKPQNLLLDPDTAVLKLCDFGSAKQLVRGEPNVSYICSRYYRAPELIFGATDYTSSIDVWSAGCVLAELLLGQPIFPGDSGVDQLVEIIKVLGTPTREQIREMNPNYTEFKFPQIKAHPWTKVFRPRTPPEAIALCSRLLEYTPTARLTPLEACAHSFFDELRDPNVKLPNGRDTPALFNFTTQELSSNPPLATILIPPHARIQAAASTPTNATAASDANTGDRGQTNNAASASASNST
Known IC50 of a selection of compounds

| compound | IC50 |
| --- | --- |
| COCCOc1cccc(-n2nnc3cnc(Nc4ccc(CNCC(F)(F)F)cc4)nc32)c1 | 1e-08 to 1e-07 M |
| N#Cc1cccc(Nc2ncc3nnn(-c4cccc(Br)c4)c3n2)c1 | < 1e-08 M |
| CC(C)(C)OC(=O)NCc1ccc(Nc2ncc3nnn(-c4cccc(F)c4)c3n2)cc1 | < 1e-08 M |
| Fc1cccc(Nc2ncc3nnn(-c4cccc(F)c4)c3n2)c1 | 1e-08 to 1e-07 M |
| CC(O)c1cccc(Nc2ncc3nnn(-c4cccc(CC#N)c4)c3n2)c1 (centres unmarked) | < 1e-08 M |

* * *

Known IC50 of a selection of compounds
biological target: GSK3β (Homo sapiens); test: GSK3beta assay (SPA, biotinylated phosphorylated CREB peptide, ATP-P33); type: biochemical; conditions: −log IC50 (M); given as ranges (>8; 7-8; <7); read-out: pIC50 (GSK3beta) (converted)

| molecule_smiles | IC50 |
| --- | --- |
| COCc1cccc(-n2nnc3cnc(Nc4ccc(CCN)cc4)nc32)c1 | 1e-08 to 1e-07 M |
| O=C(O)CNC(=O)c1ccc(Nc2ncc3nnn(-c4cccc(CNC(=O)C5CC5)c4)c3n2)cc1 | < 1e-08 M |
| COCc1cccc(-n2nnc3cnc(Nc4ccc(S(N)(=O)=O)cc4)nc32)c1 | < 1e-08 M |
| CC(=O)c1cccc(Nc2ncc3nnn(-c4cccc(S(N)(=O)=O)c4)c3n2)c1 | < 1e-08 M |
| COc1ccc(Nc2ncc3nnn(-c4cccc(F)c4)c3n2)cn1 | < 1e-08 M |
| N#CCc1cccc(-n2nnc3cnc(Nc4ccc(CCN)cc4)nc32)c1 | < 1e-08 M |
| COCC(=O)NCc1cccc(-n2nnc3cnc(Nc4cccc(NC(C)=O)c4)nc32)c1 | < 1e-08 M |
| OCCc1ccc(Nc2ncc3nnn(-c4ccc(CCO)cc4)c3n2)cc1 | > 1e-07 M |
| Cc1ccc(Nc2ncc3nnn(-c4cccc(F)c4)c3n2)cc1O | < 1e-08 M |
| N#CCc1cccc(-n2nnc3cnc(Nc4cccc(CCO)c4)nc32)c1 | < 1e-08 M |

* * *

Biological target: GSK3alpha (Homo sapiens)
Sequence (P49840 whole entry, species assumed): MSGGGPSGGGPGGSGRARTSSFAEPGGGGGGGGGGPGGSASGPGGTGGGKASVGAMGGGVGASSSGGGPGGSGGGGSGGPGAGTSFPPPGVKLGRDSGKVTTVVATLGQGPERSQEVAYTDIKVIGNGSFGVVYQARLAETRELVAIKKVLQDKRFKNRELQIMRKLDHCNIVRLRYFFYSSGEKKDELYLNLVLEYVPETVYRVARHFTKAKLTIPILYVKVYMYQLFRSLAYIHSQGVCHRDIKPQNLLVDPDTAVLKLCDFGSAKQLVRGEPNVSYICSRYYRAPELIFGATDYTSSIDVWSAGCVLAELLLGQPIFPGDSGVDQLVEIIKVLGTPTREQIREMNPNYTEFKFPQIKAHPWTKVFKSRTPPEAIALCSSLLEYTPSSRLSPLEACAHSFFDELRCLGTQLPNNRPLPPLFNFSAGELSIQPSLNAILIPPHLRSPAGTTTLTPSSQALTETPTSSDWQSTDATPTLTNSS
Experiment: GSK3alpha assay (same as the GSK3beta assay, GSK3alpha 0.25 ng/μl)
Assay type: biochemical
Details: −log IC50 (M); given as ranges (>8; 7-8; <7); read-out: pIC50 (GSK3alpha) (converted)
Procedure: GSK3beta assays were performed at room temperature in a 100 μl reaction volume of 25 mM Tris (ph 7.4) containing 10 mM MgCl2.6H2O 1 mM DTT, 0.1 mg/ml BSA, 5% glyceol and containing 5.7 ng/μl GSK3β, 5 μM biotinylated phosphorylated CREB peptide, 1 μM APT, 0.85 μCi/ml ATP-P^33 and a suitable amount of a test compound of formula (I). After one hour, the reaction was terminated by adding 70 μl of Stop mix (0.1 mM APT, 5 mg/ml streptavidin coated PVT SPA bead pH 11.0). […]
Known IC50 of a selection of compounds

| compound | IC50 |
| --- | --- |
| CC(=O)Nc1cccc(Nc2ncc3nnn(-c4cccc(S(N)(=O)=O)c4)c3n2)c1 | < 1e-08 M |
| NCc1cccc(Nc2ncc3nnn(-c4cccc(F)c4)c3n2)c1 | 1e-08 to 1e-07 M |
| NCc1ccc(Nc2ncc3nnn(-c4cccc(CCO)c4)c3n2)cc1 | < 1e-08 M |
| OCc1cccc(Nc2ncc3nnn(-c4cccc(F)c4)c3n2)c1 | < 1e-08 M |
| CS(=O)(=O)Nc1cccc(Nc2ncc3nnn(-c4cccc(S(N)(=O)=O)c4)c3n2)c1 | < 1e-08 M |
| CC(C)Oc1cccc(Nc2ncc3nnn(-c4cccc(F)c4)c3n2)c1 | < 1e-08 M |
| COCCOc1cccc(-n2nnc3cnc(Nc4ccc(C(=O)N(C)C)cc4)nc32)c1 | 1e-08 to 1e-07 M |
| N#CCc1cccc(-n2nnc3cnc(Nc4ccc(CNCC(F)(F)F)cc4)nc32)c1 | < 1e-08 M |
| Cc1cccc(Nc2ncc3nnn(-c4cccc(F)c4)c3n2)c1 | < 1e-08 M |
| CN(C)C(=O)c1cccc(Nc2ncc3nnn(-c4cccc(F)c4)c3n2)c1 | < 1e-08 M |
| CC(=O)Nc1ccc(Nc2ncc3nnn(-c4ccccc4)c3n2)cn1 | 1e-08 to 1e-07 M |
| COc1cccc(-n2nnc3cnc(Nc4cccc(S(N)(=O)=O)c4)nc32)c1 | < 1e-08 M |
| COCc1cccc(-n2nnc3cnc(Nc4ccc(C(=O)N(C)C)cc4)nc32)c1 | < 1e-08 M |
| CC(=O)NCc1cccc(Nc2ncc3nnn(-c4cccc(CCO)c4)c3n2)c1 | < 1e-08 M |
| Fc1cccc(-n2nnc3cnc(Nc4ccc(Cl)nc4)nc32)c1 | < 1e-08 M |
| O=C(O)/C=C/c1cccc(Nc2ncc3nnn(-c4cccc(F)c4)c3n2)c1 | < 1e-08 M |
| NS(=O)(=O)c1ccc(Nc2ncc3nnn(-c4cccc(C(=O)NCCO)c4)c3n2)cc1 | < 1e-08 M |
| CNC(=O)c1cccc(Nc2ncc3nnn(-c4cccc(F)c4)c3n2)c1 | < 1e-08 M |
| COCc1cccc(-n2nnc3cnc(Nc4ccc(C(=O)O)c(OC)c4)nc32)c1 | < 1e-08 M |
| OCCc1ccc(-n2nnc3cnc(Nc4ccc(F)cc4)nc32)cc1 | < 1e-08 M |
| O=C(O)c1ccc(Nc2ncc3nnn(-c4cccc(C(=O)NCCO)c4)c3n2)cc1 | < 1e-08 M |
| CC(C)(C)OC(=O)NCc1ccc(Nc2ncc3nnn(-c4cccc(F)c4)c3n2)cc1 | < 1e-08 M |
| NS(=O)(=O)c1cccc(Nc2ncc3nnn(-c4cccc(CO)c4)c3n2)c1 | < 1e-08 M |
| COCc1cccc(-n2nnc3cnc(Nc4cccc(CO)c4)nc32)c1 | < 1e-08 M |
| COCC(=O)NCc1cccc(-n2nnc3cnc(Nc4cccc(NC(C)=O)c4)nc32)c1 | < 1e-08 M |
| N#CCc1cccc(-n2nnc3cnc(Nc4cccc(CCO)c4)nc32)c1 | < 1e-08 M |
| Cn1ccnc1-c1cccc(-n2nnc3cnc(Nc4cccc(C#N)c4)nc32)c1 | 1e-08 to 1e-07 M |
| CCOC(=O)NCc1cccc(-n2nnc3cnc(Nc4cccc(NS(C)(=O)=O)c4)nc32)c1 | < 1e-08 M |
| COC(=O)c1cc(Nc2ncc3nnn(-c4cccc(F)c4)c3n2)ccc1NC(C)=O | < 1e-08 M |
| CN(C)C(=O)c1ccc(Nc2ncc3nnn(-c4cccc(CC#N)c4)c3n2)cc1 | < 1e-08 M |
| COCc1cccc(-n2nnc3cnc(Nc4cccc(C(C)O)c4)nc32)c1 (centres unmarked) | < 1e-08 M |
| CC(=O)N(C)c1ccc(Nc2ncc3nnn(-c4cccc(F)c4)c3n2)cc1 | < 1e-08 M |
| CC(=O)NCc1cccc(-n2nnc3cnc(Nc4cccc(CO)c4)nc32)c1 | < 1e-08 M |
| O=C(O)c1ccc(Nc2ncc3nnn(-c4cccc(CNC(=O)C5CC5)c4)c3n2)cc1 | < 1e-08 M |
| COCc1cccc(Nc2ncc3nnn(-c4cccc(F)c4)c3n2)c1 | < 1e-08 M |
